Measured pKd accompanies every entry in the list below.
Target: GST-DLG1 fusion protein (PDZ domains 1-2) (human) (UniProt Q12959)
Experiment: G assay titration of biotinylated peptide on plate-bound GST-PDZ, apparent affinity from saturation fit
Ends that are not written are not given here. * marks the point of attachment. Biotin = O=C1N[C@H]2[C@H](CS[C@H]2CCCCC(=O)*)N1
// returns pKd (minus log10 of molar concentration), number only

binder: Biotin-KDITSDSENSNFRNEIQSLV [CD95 (Fas) C-terminal peptide AA13L, biotinylated]
pKd: 4.27

Field: next binder
For the binder Biotin-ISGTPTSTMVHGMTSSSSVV [Clasp-2 C-terminal peptide AA2L, biotinylated] , what pKd is on record?
4.68
